Let's go through some recorded IC50 values for MMP-13 (Homo sapiens, UniProt P45452) together.

// known answers, use as guide
{"columns": ["molecule", "IC50"],
 "data": [
  ["C/C(=N\\NC(=O)Cc1ccc(-c2nc(C)no2)cc1)c1ccc(NC(=O)c2ccc(Br)o2)cc1 [Compound 13e]", "> 100 µM"],
  ["C/C(=N\\NC(=O)Cc1ccc([N+](=O)[O-])cc1)c1ccc(NC(=O)c2ccc(CO)o2)cc1 [Compound 13b]", "> 100 µM"],
  ["C/C(=N\\NC(=O)Cc1ccc([N+](=O)[O-])cc1)c1ccc(NC(=O)c2ccc(S(N)(=O)=O)o2)cc1 [Compound 13a]", "> 100 µM"]
]}

Next molecule, IC50 to be filled in.
### Prompt Can you share its IC50? I mean this molecule: O=C(Cc1ccc([N+](=O)[O-])cc1)N/N=C/c1ccc(NC(=O)c2ccc(CO)o2)cc1 [Compound 13d]
### Response 40 µM

---

Listed below: IC50 values for each entry.
biological target: MMP-14 (Homo sapiens, UniProt P50281); construct: Recombinant human MMP-14 catalytic domain; gift from Prof; Gillian Murphy (Department of Oncology, University of Cambridge, UK); experiment: Fluorometric enzyme inhibition assay on MMP-14 catalytic domain; settings: mean ± SD of three independent experiments
Answer in µM, number only, no unit symbol.

Sample answers from the record:
{"columns": ["smiles.record", "IC50, µM"],
 "data": [
  ["C/C(=N\\NC(=O)Cc1ccc([N+](=O)[O-])cc1)c1ccc(NC(=O)c2ccc(Br)o2)cc1", 63],
  ["N#C/C(=C\\c1cn(Cc2ccc(Cl)cc2)c2ccccc12)c1nn(-c2ccccc2)c(N)c1C#N", 94]
]}

Proceeding to the next compound to report its IC50.
### Prompt What value of measured IC50 is listed for O=C(COC(=O)c1ccccc1Sc1ccc([N+](=O)[O-])cc1)c1ccc(-c2ccccc2)cc1 ?
### Response 67

---

target: MMP-1 (Homo sapiens); test: Fluorometric enzyme inhibition assay on MMP-1
Sequence (P03956 100-469): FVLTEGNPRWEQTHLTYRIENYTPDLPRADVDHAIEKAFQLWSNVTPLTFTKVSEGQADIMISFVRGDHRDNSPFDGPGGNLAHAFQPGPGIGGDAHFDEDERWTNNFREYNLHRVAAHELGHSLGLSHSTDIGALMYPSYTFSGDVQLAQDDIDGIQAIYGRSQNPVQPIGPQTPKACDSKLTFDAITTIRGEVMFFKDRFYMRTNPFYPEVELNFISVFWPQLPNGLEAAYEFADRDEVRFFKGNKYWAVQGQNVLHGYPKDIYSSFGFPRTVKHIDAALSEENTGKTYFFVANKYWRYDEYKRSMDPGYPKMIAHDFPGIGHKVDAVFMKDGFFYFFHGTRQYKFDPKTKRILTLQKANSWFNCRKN
IC50 values by entry
Write the value in µM as a bare number.

{"columns": ["compound", "test.system", "IC50, µM"],
 "data": [
  ["O=C(Cc1ccc(C(=O)O)cc1)N/N=C/c1ccc(CNC(=O)c2ccc(Br)o2)cc1 [Compound 13m]", "MMP-1 (Homo sapiens)", 177]
]}

### Prompt Query the reported IC50 for MMP-1 (Homo sapiens); item: C/C(=N\NC(=O)Cc1ccc([N+](=O)[O-])cc1)c1ccc(NC(=O)c2ccc(Br)o2)cc1
### Response 91

---

Reported melting point values are given for each entry in this list.

Worked cases, melting point given:
{"columns": ["compound", "melting point"],
 "data": [
  ["O=C(Cc1ccc(-c2nnn[nH]2)cc1)N/N=C/c1ccc(CNC(=O)c2ccc(Br)o2)cc1 [Compound 13o]", "245 to 248 °C"],
  ["C/C(=N\\NC(=O)Cc1ccc(C(=O)O)cc1)c1ccc(NC(=O)c2ccc(Br)o2)cc1 [Compound 13h]", "292 to 295 °C"],
  ["C/C(=N\\NC(=O)Cc1ccc([N+](=O)[O-])cc1)c1ccc(NC(=O)c2ccc(S(N)(=O)=O)o2)cc1 [Compound 13a]", "255 to 258 °C"]
]}

### Prompt I would be grateful if you could share the reported melting point for C/C(=N\NC(=O)Cc1ccc(-c2nc(C)no2)cc1)c1ccc(NC(=O)c2ccc(CO)o2)cc1 [Compound 13f] .
### Response 243 to 246 °C

### Prompt Reported melting point, compound O=C(Cc1ccc([N+](=O)[O-])cc1)N/N=C/c1ccc(NC(=O)c2ccc(Br)o2)cc1 [Compound 13c] : ____
### Response 277 to 279 °C

### Prompt Any idea what its melting point is? The compound is C/C(=N\NC(=O)Cc1ccc([N+](=O)[O-])cc1)c1ccc(NC(=O)c2ccc(CO)o2)cc1 [Compound 13b]
### Response 238 to 241 °C

### Prompt State the recorded melting point for this entry: C/C(=N\NC(=O)Cc1ccc(C(=O)O)cc1)c1ccc(NC(=O)c2ccc(CO)o2)cc1 [Compound 13i]
### Response 232 to 235 °C

---

As shown below, each of these compounds has a reported melting point value.

Answered cases to consult:
{"columns": ["compound", "assay.result"],
 "data": [
  ["O=C(Cc1ccc(-c2nnn[nH]2)cc1)N/N=C/c1ccc(NC(=O)c2ccc(Br)o2)cc1 [Compound 13n]", "262 to 265 °C"],
  ["O=C(Cc1ccc([N+](=O)[O-])cc1)N/N=C/c1ccc(NC(=O)c2ccc(CO)o2)cc1 [Compound 13d]", "246 to 248 °C"],
  ["Cc1noc(-c2ccc(CC(=O)N/N=C/c3ccc(NC(=O)c4ccc(CO)o4)cc3)cc2)n1 [Compound 13g]", "232 to 235 °C"]
]}

### Prompt Consider the compound shown here: O=C(Cc1ccc(C(=O)O)cc1)N/N=C/c1ccc(NC(=O)c2ccc(Br)o2)cc1 [Compound 13l] What is its recorded melting point?
### Response 307 to 310 °C

### Prompt Any idea what its melting point is? The compound is C/C(=N\NC(=O)Cc1ccc(-c2nc(C)no2)cc1)c1ccc(NC(=O)c2ccc(Br)o2)cc1 [Compound 13e]
### Response 252 to 255 °C

---

A set of molecules tested on MMP-9 (Homo sapiens, UniProt P14780), with measured IC50:
Please state the figure in µM; there is no need to write the unit.

{"columns": ["molecule", "measured.endpoint", "assay.result"],
 "data": [
  ["O=C(Cc1ccc(C(=O)O)cc1)N/N=C/c1ccc(CNC(=O)c2ccc(Br)o2)cc1 [Compound 13m]", "IC50", 50]
]}

### Prompt Fill in the recorded IC50 for this molecule, with MMP-9 (Homo sapiens, UniProt P14780) as test system: O=C(COC(=O)c1ccccc1Sc1ccc([N+](=O)[O-])cc1)c1ccc(-c2ccccc2)cc1
Sequence (P14780 107-707 limits assumed): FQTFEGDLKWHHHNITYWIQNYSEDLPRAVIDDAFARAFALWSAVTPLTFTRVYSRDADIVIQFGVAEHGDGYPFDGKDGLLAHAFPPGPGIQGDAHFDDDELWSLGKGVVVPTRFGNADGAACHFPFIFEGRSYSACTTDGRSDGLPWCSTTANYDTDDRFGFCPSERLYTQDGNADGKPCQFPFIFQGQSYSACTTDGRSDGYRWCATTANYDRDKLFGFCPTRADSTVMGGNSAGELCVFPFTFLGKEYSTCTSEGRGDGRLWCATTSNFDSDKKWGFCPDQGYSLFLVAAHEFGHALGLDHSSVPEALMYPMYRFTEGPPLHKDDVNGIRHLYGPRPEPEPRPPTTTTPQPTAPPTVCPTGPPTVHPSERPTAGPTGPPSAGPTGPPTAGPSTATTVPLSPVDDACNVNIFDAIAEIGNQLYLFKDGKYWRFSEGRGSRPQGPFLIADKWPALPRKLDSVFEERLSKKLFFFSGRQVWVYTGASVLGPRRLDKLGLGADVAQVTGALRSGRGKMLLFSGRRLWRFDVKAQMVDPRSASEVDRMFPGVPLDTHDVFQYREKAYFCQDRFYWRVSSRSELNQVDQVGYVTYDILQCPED
### Response 72
